Hello, the source for this data is the supplement of paper PMC10567573, in case you need it.

B1: IFRG15 (parent)
chain: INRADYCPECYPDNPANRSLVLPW

variants of: B1; assay: protein stability index of a GFP-peptide fusion (GPS, HEK-293T) (PSI 1-6); higher = more stable; conditions: c terminus: a fixed tail appended;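 also: lentivirally expressed fusions sorted by FACS into six bins by GFP to DsRed ratio, PSI derived from sequencing read proportions per bin multiplied by bin number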
Parameter: protein stability index. Scope: all listed entries.
Reply: number alone, nothing else.

// worked examples, protein stability index included
> print(dat)
   mutant  obs.value
1    P15Y       1.84
2     N2G       2.15
3    Y11C       3.16

Q: Reported protein stability index, variant D5S : ____
Result: 2.07

Q: Reported protein stability index, variant N2K : ____
Result: 2.29

Q: Reported protein stability index, variant C7F : ____
Result: 2.28

Q: Reported protein stability index, variant P23S : ____
Result: 2.83

Q: Reported protein stability index, variant A16M : ____
Result: 1.85

Q: Reported protein stability index, variant D13S : ____
Result: 1.82

Q: Reported protein stability index, variant C7A : ____
Result: 2.58
